Data origin: patent US20040029100A1

- Tested target: P-glycoprotein (Pgp) purified from MDR CH^RB30 Chinese hamster ovary cells (Cricetulus griseus, UniProt P21448)
- Sequence (P21448 whole entry): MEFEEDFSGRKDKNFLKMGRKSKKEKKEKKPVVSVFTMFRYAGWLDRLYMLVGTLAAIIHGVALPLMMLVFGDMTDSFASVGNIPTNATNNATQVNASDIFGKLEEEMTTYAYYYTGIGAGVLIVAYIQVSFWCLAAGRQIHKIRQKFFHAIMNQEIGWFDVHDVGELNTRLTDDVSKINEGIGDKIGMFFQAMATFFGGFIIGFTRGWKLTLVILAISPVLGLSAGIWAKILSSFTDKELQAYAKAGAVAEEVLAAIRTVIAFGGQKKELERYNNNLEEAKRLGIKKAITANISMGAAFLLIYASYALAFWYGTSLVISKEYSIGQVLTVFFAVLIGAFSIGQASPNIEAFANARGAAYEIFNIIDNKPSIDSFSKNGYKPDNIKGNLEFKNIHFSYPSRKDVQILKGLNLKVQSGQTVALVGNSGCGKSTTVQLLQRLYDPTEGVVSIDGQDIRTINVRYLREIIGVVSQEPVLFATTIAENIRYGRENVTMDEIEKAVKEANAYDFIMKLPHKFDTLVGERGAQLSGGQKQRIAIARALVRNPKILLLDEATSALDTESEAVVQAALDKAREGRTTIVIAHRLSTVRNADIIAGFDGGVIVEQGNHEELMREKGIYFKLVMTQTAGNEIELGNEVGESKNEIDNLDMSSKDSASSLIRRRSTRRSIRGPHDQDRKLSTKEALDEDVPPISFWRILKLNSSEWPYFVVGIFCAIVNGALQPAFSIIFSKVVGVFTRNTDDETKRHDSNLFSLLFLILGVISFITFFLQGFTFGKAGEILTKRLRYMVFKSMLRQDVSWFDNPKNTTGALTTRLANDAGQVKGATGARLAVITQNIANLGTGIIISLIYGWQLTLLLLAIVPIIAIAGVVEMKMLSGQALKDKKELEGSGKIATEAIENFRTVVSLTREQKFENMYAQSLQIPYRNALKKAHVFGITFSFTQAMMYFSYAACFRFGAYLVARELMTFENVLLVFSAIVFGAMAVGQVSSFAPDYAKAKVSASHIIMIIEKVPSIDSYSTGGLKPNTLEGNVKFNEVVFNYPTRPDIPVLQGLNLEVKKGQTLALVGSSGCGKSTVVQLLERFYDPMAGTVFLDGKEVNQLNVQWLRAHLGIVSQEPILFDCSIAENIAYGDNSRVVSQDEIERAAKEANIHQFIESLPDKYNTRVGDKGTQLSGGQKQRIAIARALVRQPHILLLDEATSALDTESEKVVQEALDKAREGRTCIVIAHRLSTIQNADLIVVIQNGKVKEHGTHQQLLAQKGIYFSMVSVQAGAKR
- Test: Quenching of intrinsic Trp fluorescence of purified Pgp by nucleotides, drugs and peptides
- Test parameters: Kd2, lower affinity site of biphasic quench curve
Reported endpoint: Kd (µM)
# value in µM; strip the unit string

Item O=c1cc(N2CCOCC2)oc2c(-c3ccccc3)cccc12 has what recorded Kd?
11.5

---

- Tested target: P-glycoprotein (Pgp) purified from MDR CH^RB30 Chinese hamster ovary cells (Cricetulus griseus, UniProt P21448)
- Test: Quenching of intrinsic Trp fluorescence of purified Pgp by nucleotides, drugs and peptides
- Test parameters: Kd1, single binding site or high affinity site; 100 μg/mL Pgp, 2 mM CHAPS, 0.5 mg/mL PMPC, 22° C.
Square brackets hold non-standard residues; d marks the D form. Peptide text beside a SMILES is read from it. * marks the point of attachment. Sta = CC(C)C[C@H](N)[C@@H](O)CC(=O)O; Isovaleryl = CC(C)CC(=O)*
Reported endpoint: pKd
On this scale, pKd is minus log10 of a concentration expressed in M (mol/L).

Item CC(C)CC(=O)N[C@H](C(=O)N[C@H](C(=O)N[C@@H](CC(C)C)[C@@H](O)CC(=O)N[C@@H](C)C(=O)N[C@@H](CC(C)C)[C@@H](O)CC(=O)O)C(C)C)C(C)C [pepstatin A] (Isovaleryl-VV[Sta]A[Sta]-OH) has what recorded pKd?
5.02

Now give it for O=c1cc(N2CCOCC2)oc2c(-c3ccccc3)cccc12 [LY294002] too.
5.20

---

- Tested target: P-glycoprotein (Pgp) (Cricetulus griseus)
- Sequence (P21448 whole entry): as above
- Test: in vitro
- Test parameters: Chinese hamster, Kd2
- Protocol: Purification of Pgp. Pgp was purified from plasma membrane of MDR CH^RB30 cells by a modification of the method previously described for CH^RC5 (27). […] Steady-state Fluorescence Measurements. Steady-state fluorescence measurements were performed using a Spex Model DM3000 spectrofluorimeter (Spex Industries Inc., Edison, N.J.) at 22° C., with excitation and emission bandpass set to 4 nm. […] With some drugs, the use of a lipid was not required for the fluorescence measurements. […]
Can you tell me Kd for the items I'm about to list?
# value in µM; strip the unit string

Item COc1cccc2c1C(=O)c1c(O)c3c(c(O)c1C2=O)C[C@@](O)(C(C)=O)C[C@@H]3O[C@H]1C[C@H](N)[C@H](O)[C@H](C)O1 has what recorded Kd?
10.7

Now give it for COc1cccc2c1C(=O)c1c(O)c3c(c(O)c1C2=O)C[C@@](O)(C(=O)CO)C[C@@H]3O[C@H]1C[C@H](N)[C@H](O)[C@H](C)O1 too.
21.6

Now give it for CN1CCN(CCCN2c3ccccc3Sc3ccc(C(F)(F)F)cc32)CC1 too.
16.8

---

- Tested target: P-glycoprotein (Pgp) purified from MDR CH^RB30 Chinese hamster ovary cells (Cricetulus griseus, UniProt P21448)
- Test: Quenching of intrinsic Trp fluorescence of purified Pgp by nucleotides, drugs and peptides
- Test parameters: maximal Trp quenching, single or higher affinity component
Square brackets hold non-standard residues; d marks the D form. Peptide text beside a SMILES is read from it. * marks the point of attachment. Sta = CC(C)C[C@H](N)[C@@H](O)CC(=O)O; Isovaleryl = CC(C)CC(=O)*
Can you tell me ΔFmax1 for the items I'm about to list?

Item CC[C@]1(O)C[C@@H]2CN(CCc3c([nH]c4ccccc34)[C@@](C(=O)OC)(c3cc4c(cc3OC)N(C)[C@H]3[C@@](O)(C(=O)OC)[C@H](OC(C)=O)[C@]5(CC)C=CCN6CC[C@]43[C@@H]65)C2)C1 has what recorded ΔFmax1?
17.5 ± 0.82%

Now give it for COC(=O)[C@H](CCCCNC(=O)[C@H](CCC(=O)OCc1ccccc1)NC(=O)OC(C)(C)C)NC(=O)[C@H](CCC(=O)OCc1ccccc1)NC(=O)OC(C)(C)C too.
5.41 ± 0.13%

Now give it for COc1cc2c(c(OC)c1OC)-c1ccc(OC)c(=O)cc1[C@@H](NC(C)=O)CC2 too.
102.2 ± 5.7%

Now give it for Nc1ncnc2c1ncn2C1OC(COP(=O)(O)OP(=O)(O)NP(=O)(O)O)C(O)C1O (stereo not drawn) [AMP-PNP, 5′-adenylylimido-diphosphate] too.
10.6%

Now give it for CC(C)CC(=O)N[C@H](C(=O)N[C@H](C(=O)N[C@@H](CC(C)C)[C@@H](O)CC(=O)N[C@@H](C)C(=O)N[C@@H](CC(C)C)[C@@H](O)CC(=O)O)C(C)C)C(C)C [pepstatin A] (Isovaleryl-VV[Sta]A[Sta]-OH) too.
4.46 ± 0.073%

Now give it for CCCCCCCCCCCCCCCCCCOP(=O)(O)OCC[N+]1(C)CCCCC1 too.
12.3 ± 0.89%

Now give it for O=c1cc(N2CCOCC2)oc2c(-c3ccccc3)cccc12 too.
29.7 ± 1.6%

Now give it for C/C=C/C[C@@H](C)C(=O)[C@H]1C(=O)N[C@@H](C(C)C)C(=O)N(C)CC(=O)N(C)[C@@H](CC(C)C)C(=O)N[C@@H](C(C)C)C(=O)N(C)[C@@H](CC(C)C)C(=O)N[C@@H](C)C(=O)N[C@H](C)C(=O)N(C)[C@@H](CC(C)C)C(=O)N(C)[C@@H](CC(C)C)C(=O)N(C)[C@@H](C(C)C)C(=O)N1C too.
4.02 ± 0.079%

Now give it for Nc1ncnc2c1ncn2[C@@H]1O[C@H](COP(=O)([O-])OP(=O)([O-])O)[C@@H](O)[C@H]1O.[Na+].[Na+] [ADP, disodium-ADP] too.
9.46%

---

- Tested target: P-glycoprotein (Pgp) purified from MDR CH^RB30 Chinese hamster ovary cells (Cricetulus griseus)
- Test: Trp fluorescence lifetime of purified Pgp in presence of nucleotides and drugs
- Design: Pgp was purified from plasma membrane of MDR CH^RB30 cells; endogenous in cells; host or cells: MDR CH^RB30 Chinese hamster ovary cells (plasma membrane, CHAPS extraction, concanavalin A-Sepharose pass-through)
- Test parameters: Pgp Trp decay, concentration of substance
Reported endpoint: t2 (fluorescence lifetime) (ns)
# value in ns; strip the unit string

Item CC[C@]1(O)C[C@@H]2CN(CCc3c([nH]c4ccccc34)[C@@](C(=O)OC)(c3cc4c(cc3OC)N(C)[C@H]3[C@@](O)(C(=O)OC)[C@H](OC(C)=O)[C@]5(CC)C=CCN6CC[C@]43[C@@H]65)C2)C1 has what recorded t2 (fluorescence lifetime)?
4.4

Now give it for COc1cccc2c1C(=O)c1c(O)c3c(c(O)c1C2=O)C[C@@](O)(C(C)=O)C[C@@H]3O[C@H]1C[C@H](N)[C@H](O)[C@H](C)O1 too.
4.4

Now give it for COc1cc2c(c(OC)c1OC)-c1ccc(OC)c(=O)cc1[C@@H](NC(C)=O)CC2 too.
4.7

Now give it for CN1CCN(CCCN2c3ccccc3Sc3ccc(C(F)(F)F)cc32)CC1 too.
4.3

---

- Tested target: P-glycoprotein (Pgp) purified from MDR CH^RB30 Chinese hamster ovary cells (Cricetulus griseus, UniProt P21448)
- Test: Trp fluorescence lifetime of purified Pgp in presence of nucleotides and drugs
- Set-up: Pgp was purified from plasma membrane of MDR CH^RB30 cells; endogenous in cells; host or cells: MDR CH^RB30 Chinese hamster ovary cells (plasma membrane, CHAPS extraction, concanavalin A-Sepharose pass-through)
- Test parameters: Pgp Trp decay, concentration of substance
Can you tell me a2 (pre-exponential value) for the items I'm about to list?
// response body must contain only the number

Item CN1CCN(CCCN2c3ccccc3Sc3ccc(C(F)(F)F)cc32)CC1 has what recorded a2 (pre-exponential value)?
0.35

Now give it for CC[C@]1(O)C[C@@H]2CN(CCc3c([nH]c4ccccc34)[C@@](C(=O)OC)(c3cc4c(cc3OC)N(C)[C@H]3[C@@](O)(C(=O)OC)[C@H](OC(C)=O)[C@]5(CC)C=CCN6CC[C@]43[C@@H]65)C2)C1 too.
0.51

Now give it for COc1cc2c(c(OC)c1OC)-c1ccc(OC)c(=O)cc1[C@@H](NC(C)=O)CC2 too.
0.39

Now give it for COc1cccc2c1C(=O)c1c(O)c3c(c(O)c1C2=O)C[C@@](O)(C(C)=O)C[C@@H]3O[C@H]1C[C@H](N)[C@H](O)[C@H](C)O1 too.
0.52

---

- Tested target: P-glycoprotein (Pgp) purified from MDR CH^RB30 Chinese hamster ovary cells (Cricetulus griseus)
- Test: Trp fluorescence lifetime of purified Pgp in presence of nucleotides and drugs
- Set-up: Pgp was purified from plasma membrane of MDR CH^RB30 cells; endogenous in cells; host or cells: MDR CH^RB30 Chinese hamster ovary cells (plasma membrane, CHAPS extraction, concanavalin A-Sepharose pass-through)
- Test parameters: Pgp Trp decay, concentration of substance
- Experimental: Purification of Pgp. Pgp was purified from plasma membrane of MDR CH^RB30 cells by a modification of the method previously described for CH^RC5 (27). […] Fluorescence Lifetime Measurements. Fluorescence decays were measured with a PTI Model C-720 fluorescence lifetime instrument ((28), Photon Technology International Inc., Lawrenceville, N.J.) utilizing a proprietary stroboscopic detection technique (29). […]
Can you tell me <tav> (amplitude average lifetime) for the items I'm about to list?
# value in ns; strip the unit string

Item CN1CCN(CCCN2c3ccccc3Sc3ccc(C(F)(F)F)cc32)CC1 has what recorded <tav> (amplitude average lifetime)?
2.15

Now give it for CC[C@]1(O)C[C@@H]2CN(CCc3c([nH]c4ccccc34)[C@@](C(=O)OC)(c3cc4c(cc3OC)N(C)[C@H]3[C@@](O)(C(=O)OC)[C@H](OC(C)=O)[C@]5(CC)C=CCN6CC[C@]43[C@@H]65)C2)C1 too.
2.17

Now give it for COc1cc2c(c(OC)c1OC)-c1ccc(OC)c(=O)cc1[C@@H](NC(C)=O)CC2 too.
2.63

Now give it for COc1cccc2c1C(=O)c1c(O)c3c(c(O)c1C2=O)C[C@@](O)(C(C)=O)C[C@@H]3O[C@H]1C[C@H](N)[C@H](O)[C@H](C)O1 too.
2.61
